Overview of recorded IC50 for various compounds
test system: JJN-3 (NIK translocated) multiple myeloma cells; assay: Antiproliferative activity on JJN-3 multiple myeloma cells (CellTiter-Glo); assay type: cell-based, human; settings: Homo sapiens, JJN-3, 96 h, JJN-3 (NIK translocated) cells, 96 hr treatment, averaged values, read-out: JJN-3 Proliferation inhibition (IC50 (nM))
Number only, in nM; omit the unit.

As a guide, the following entries are already answered.
COMPOUND	IC50 [nM]
Cc1cnc(CO)cc1Nc1nccc(-c2cc(C#N)c3c(c2)[C@@](C)(CO)CN3)n1	105
COCCCn1cccc(Nc2nccc(-c3cc(C#N)c4c(c3)[C@@](C)(CO)CN4)n2)c1=O [Compound 10i]	339
C[C@]1(CO)CNc2c(C#N)cc(-c3ccnc(Nc4cccnc4O[C@H]4CCOC4)n3)cc21	813
Cc1cc(Nc2nccc(-c3cc(C#N)c4c(c3)[C@@](C)(CO)CN4)n2)c(=O)n(Cc2nccn2C)c1	316
Cc1cnc(CCC(=O)N(C)C)c(Nc2nccc(-c3cc(C#N)c4c(c3)[C@@](C)(CO)CN4)n2)c1	525

Report IC50 for Cc1ncc(C#N)cc1Nc1nccc(-c2cc(C#N)c3c(c2)[C@@](C)(CO)CN3)n1 145

Return IC50 (reported value) for this compound: COCCOc1ncc(F)cc1Nc1nccc(-c2cc(C#N)c3c(c2)[C@@](C)(CO)CN3)n1 389

----------
system: JJN-3 (NIK translocated) multiple myeloma cells; assay: Antiproliferative activity on JJN-3 multiple myeloma cells (CellTiter-Glo); assay type: cell-based, human; details: Homo sapiens, JJN-3, 96 h, JJN-3 (NIK translocated) cells, 96 hr treatment, averaged values, read-out: JJN-3 Proliferation inhibition (IC50 (nM))
OBSERVED_PROPERTY: log10 IC50 (log10 of the value in nM)
Response schema: value (number) is log10 of IC50 in units of nM.

A selection of reference data follows.
COMPOUND	log10 IC50
Cc1cnc(CCN2CC(F)C2)c(Nc2nccc(-c3cc(C#N)c4c(c3)[C@@](C)(CO)CN4)n2)c1	2.12
COCCOc1ncc(C2CC2)cc1Nc1nccc(-c2cc(C#N)c3c(c2)[C@@](C)(CO)CN3)n1	2.31
COCCCc1ccc(Nc2nccc(-c3cc(C#N)c4c(c3)[C@@](C)(CO)CN4)n2)c(OC)n1	2.30
Cc1cnc(CCC2CC2)c(Nc2nccc(-c3cc(C#N)c4c(c3)[C@@](C)(CO)CN4)n2)c1	1.99
Cc1cc(Nc2nccc(-c3cc(C#N)c4c(c3)[C@@](C)(CO)CN4)n2)c(=O)n(CC2COCCN2C)c1 (some centres unmarked) [Compound 26i]	1.45
Cc1cnc(OC2CCN(C)CC2)c(Nc2nccc(-c3cc(C#N)c4c(c3)[C@@](C)(CO)CN4)n2)c1	0.72

Give JJN-3 (NIK translocated) multiple myeloma cells log10 IC50 for the following compound: COc1nc(C2=CCOCC2)ncc1Nc1nccc(-c2cc(C#N)c3c(c2)[C@@](C)(CO)CN3)n1 2.54

Provide JJN-3 (NIK translocated) multiple myeloma cells log10 IC50 reading for Cc1cc(Nc2ncc(F)c(-c3cc(C#N)c4c(c3)[C@@](C)(CO)CN4)n2)c(C)cn1 . 1.69

Give log10 IC50 only, for Cc1cc(Nc2nccc(-c3cc(C#N)c4c(c3)[C@@](C)(CO)CN4)n2)c(=O)n(CCN2CC(C)NC(C)C2)c1 (some centres unmarked) [Compound 16i] , using JJN-3 (NIK translocated) multiple myeloma cells data. 1.40

Would you please give the reported log10 IC50 of Cc1cc(Nc2nccc(-c3cc(C#N)c4c(c3)[C@@](C)(CO)CN4)n2)c(=O)n(CCN2CCOCC2)c1 with JJN-3 (NIK translocated) multiple myeloma cells? 2.06

Quote JJN-3 (NIK translocated) multiple myeloma cells log10 IC50 for entry CN(C)C(=O)COc1ncc(Cl)cc1Nc1nccc(-c2cc(C#N)c3c(c2)[C@@](C)(CO)CN3)n1 . 2.40

Provide log10 IC50, tested on JJN-3 (NIK translocated) multiple myeloma cells, for Cc1cc(Nc2nccc(-c3cc(C#N)c4c(c3)[C@@](C)(CO)CN4)n2)c(=O)n(CCN2CCN(C)CC2)c1 [Compound 19i] . 1.40

Write down measured log10 IC50 (JJN-3 (NIK translocated) multiple myeloma cells) for this compound. CC1(CO)CNc2c(C#N)cc(-c3ccnc(Nc4ccc(N5CCNCC5)cn4)n3)cc21 (centres unmarked) 1.95

Give log10 IC50 for COc1ncc(Cl)cc1Nc1nccc(-c2cc(C#N)c3c(c2)C(C)(CO)CN3)n1 (centres unmarked) tested on JJN-3 (NIK translocated) multiple myeloma cells. 1.91

Write log10 IC50 of Cc1ncc(Cl)cc1Nc1nccc(-c2cc(C#N)c3c(c2)C(C)(CO)CN3)n1 (centres unmarked) ; system used: JJN-3 (NIK translocated) multiple myeloma cells 1.99

For JJN-3 (NIK translocated) multiple myeloma cells, give the measured log10 IC50 of the entry CN(C)C(=O)CCc1ccc(Nc2nccc(-c3cc(C#N)c4c(c3)[C@@](C)(CO)CN4)n2)c(CCC2CC2)n1 2.96

Find the measured log10 IC50 of CCCCc1ncc(C#N)cc1Nc1nccc(-c2cc(C#N)c3c(c2)[C@@](C)(CO)CN3)n1 with JJN-3 (NIK translocated) multiple myeloma cells as test system. 1.61

----------
OBSERVED_PROPERTY: melting point (°C)
Just the number in °C, nothing appended.

Examples from the recorded data:
COMPOUND	melting point (°C)
[2H]C([2H])([2H])Oc1ncccc1Nc1nccc(-c2cc(C#N)c3c(c2)C(C)(CO)CN3)n1 (stereo not drawn)	248
CCCc1ncc(C#N)cc1Nc1nccc(-c2cc(C#N)c3c(c2)[C@@](C)(CO)CN3)n1	193
COc1nc(-c2cnn(C)c2)c(C)cc1Nc1nccc(-c2cc(C#N)c3c(c2)[C@@](C)(CO)CN3)n1	166

Could you now consider this next compound?
// fetch melting point given entry COc1ncc(Cl)cc1Nc1nccc(-c2cc(C#N)c3c(c2)[C@@](C)(CO)CN3)n1 266

----------
target: recombinant human NF-kappaB-inducing Kinase (NIK/MAP3K14) (Homo sapiens); test: Inhibition of auto-phosphorylation of recombinant human NIK/MAP3K14 activity (AlphaScreen); format: biochemical; conditions: 25 microM ATP, averaged over all measurements on all batches
Friendly reminder: IC50 below 2 nM is label 1, at or above is label 0.

COMPOUND	CAT
COCCNc1nc(OC)c(Nc2nccc(-c3cc(C#N)c4c(c3)C(C)(C)CN4)n2)cc1Cl	label 0
COCCCc1ncc(C#N)cc1Nc1nccc(-c2cc(C#N)c3c(c2)[C@@](C)(CO)CN3)n1	label 0
COc1nc(/C=C/C(=O)N(C)C)ccc1Nc1nccc(-c2cc(C#N)c3c(c2)[C@@](C)(CO)CN3)n1	label 0

I'd appreciate it if you could check whether CNCC1(C)CNc2c(C#N)cc(-c3ccnc(Nc4cccnc4OC)n3)cc21 (stereo not shown) has IC50 smaller than 2 nM. label 0

hey, is IC50 for Cc1nc(/C=C/C(=O)N(C)C)ccc1Nc1nccc(-c2cc(C#N)c3c(c2)[C@@](C)(CO)CN3)n1 lower than 2 nM or not? label 1

Dear reviewer, please state whether Cc1nc(P(C)(C)=O)c(Cl)cc1Nc1nccc(-c2cc(C#N)c3c(c2)[C@@](C)(CO)CN3)n1 has IC50 strictly beneath 2 nM. label 1

Find out if reported IC50 for Cc1cc(Nc2nccc(-c3cc(C#N)c4c(c3)[C@@](C)(CO)CN4)n2)c(=O)n(CC2COCCN2C)c1 (stereo partly shown) [Compound 26i] is less than 2 nM label 0

----------
molecular target: recombinant human NF-kappaB-inducing Kinase (NIK/MAP3K14) (Homo sapiens, UniProt Q99558); test: Inhibition of auto-phosphorylation of recombinant human NIK/MAP3K14 activity (AlphaScreen); assay type: biochemical; details: 25 microM ATP, averaged over all measurements on all batches
Sequence (Q99558 whole entry): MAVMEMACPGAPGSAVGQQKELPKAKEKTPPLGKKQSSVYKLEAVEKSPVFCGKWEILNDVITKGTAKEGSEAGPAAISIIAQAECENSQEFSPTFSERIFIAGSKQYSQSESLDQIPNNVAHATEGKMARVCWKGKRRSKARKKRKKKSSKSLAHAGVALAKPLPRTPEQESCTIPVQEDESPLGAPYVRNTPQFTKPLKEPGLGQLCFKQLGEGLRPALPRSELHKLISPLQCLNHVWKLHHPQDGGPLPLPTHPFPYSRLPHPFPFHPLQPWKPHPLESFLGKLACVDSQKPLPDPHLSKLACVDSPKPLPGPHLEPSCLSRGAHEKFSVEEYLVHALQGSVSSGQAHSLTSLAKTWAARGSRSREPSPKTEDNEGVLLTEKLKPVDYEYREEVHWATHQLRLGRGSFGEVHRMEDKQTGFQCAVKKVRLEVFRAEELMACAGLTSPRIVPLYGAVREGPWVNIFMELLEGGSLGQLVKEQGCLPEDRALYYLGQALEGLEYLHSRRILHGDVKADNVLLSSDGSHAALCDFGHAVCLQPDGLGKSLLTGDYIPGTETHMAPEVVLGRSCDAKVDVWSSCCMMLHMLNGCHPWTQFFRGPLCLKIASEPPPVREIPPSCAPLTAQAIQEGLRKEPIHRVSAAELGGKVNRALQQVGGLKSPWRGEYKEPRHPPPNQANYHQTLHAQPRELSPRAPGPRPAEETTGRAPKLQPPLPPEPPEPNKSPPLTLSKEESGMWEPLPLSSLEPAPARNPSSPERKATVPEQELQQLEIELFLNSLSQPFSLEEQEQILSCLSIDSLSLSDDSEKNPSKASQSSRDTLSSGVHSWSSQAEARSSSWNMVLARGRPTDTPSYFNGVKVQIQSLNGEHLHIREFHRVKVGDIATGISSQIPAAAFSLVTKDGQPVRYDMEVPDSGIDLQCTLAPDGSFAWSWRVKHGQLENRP
Property: IC50; scope: individual molecules
The figure you give is taken to be in nM; do not add the unit.

Consider the following illustrative entries.
MOLECULE	TARGET_OF_ASSAY	UNIT_LABEL	REPORTED_RESULT
COCCOc1ncccc1Nc1nccc(-c2cc(C#N)c3c(c2)[C@@](C)(CO)CN3)n1	recombinant human NF-kappaB-inducing Kinase (NIK/MAP3K14) (Homo sapiens, UniProt Q99558)	nM	4.2
COc1nc(N(C)C)c(Cl)cc1Nc1nccc(-c2cc(C#N)c3c(c2)C(C)(C)CN3)n1	recombinant human NF-kappaB-inducing Kinase (NIK/MAP3K14) (Homo sapiens, UniProt Q99558)	nM	123
C[C@]1(CO)CNc2c(C#N)cc(-c3ccnc(Nc4cccnc4O[C@H]4CCOC4)n3)cc21	recombinant human NF-kappaB-inducing Kinase (NIK/MAP3K14) (Homo sapiens, UniProt Q99558)	nM	3.2

Consider the molecule COc1ncccc1Nc1nccc(-c2cc(C#N)c3c(c2)C(C)(C)CN3)n1 and give its recorded IC50. 9.8

Look up IC50 of COCCNc1ccc(Nc2nccc(-c3cc(C#N)c4c(c3)C(C)(CO)CN4)n2)c(OC)n1 (centres unmarked) and report it. 12.9

Name the recorded IC50 of the item C[C@]1(CO)CNc2c(C#N)cc(-c3ccnc(Nc4cc(C#N)cnc4OC4CC4)n3)cc21 in your answer. 2.5

Check the records and state IC50 for COc1ncc(Cl)cc1Nc1ncc(F)c(-c2cc(C#N)c3c(c2)[C@@](C)(CO)CN3)n1 11.2

Output measured IC50 for this item: COc1nc(C(F)(F)F)ccc1Nc1nccc(-c2cc(C#N)c3c(c2)[C@@](C)(CO)CN3)n1 39.8
